Overview of recorded kon for various binders
Biological target: T1, full-length Sudan GP (GPFL) (Sudan virus (SUDV), UniProt Q7T9D9 33-650)
T1 construct: also called Sudan GPFL; GP(S)FL
T1 sequence: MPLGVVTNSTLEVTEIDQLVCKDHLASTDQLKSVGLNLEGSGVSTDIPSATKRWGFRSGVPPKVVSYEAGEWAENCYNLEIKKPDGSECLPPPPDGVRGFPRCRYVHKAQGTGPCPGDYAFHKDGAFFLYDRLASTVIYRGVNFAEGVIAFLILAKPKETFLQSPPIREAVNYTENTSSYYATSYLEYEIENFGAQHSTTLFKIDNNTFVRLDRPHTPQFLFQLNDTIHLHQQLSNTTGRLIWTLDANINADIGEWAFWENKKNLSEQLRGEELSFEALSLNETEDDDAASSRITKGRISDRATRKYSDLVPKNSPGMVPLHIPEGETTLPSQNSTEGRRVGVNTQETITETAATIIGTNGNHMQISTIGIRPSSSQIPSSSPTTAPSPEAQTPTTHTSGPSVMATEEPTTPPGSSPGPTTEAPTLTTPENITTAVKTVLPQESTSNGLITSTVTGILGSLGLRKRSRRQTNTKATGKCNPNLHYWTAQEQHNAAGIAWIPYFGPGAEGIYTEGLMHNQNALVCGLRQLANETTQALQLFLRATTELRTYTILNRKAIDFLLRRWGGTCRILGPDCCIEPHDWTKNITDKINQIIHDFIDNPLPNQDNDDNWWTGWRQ
Test: BLI, Fab, pH 7.4
Form entry: value (M⁻¹ s⁻¹) — number only.

binder	measured.property	readout.number
Fab generated from 382S (Fab, V domains shown, also called 382S Fab) VH: QVQLVQSGAEVKKPGSSVKVSCKASGGTFSNYGISWVRQAPGQGLEWMGRNIPIIGIANYAQKFQDRVTITADKSTSTVFMELRSLRYEDTAVYYCARDPLAARRGNWFDPWGQGTLVTVSS VL: DIQMTQSPSTLSASVGDRVTITCRASQSVSSWLAWYQQKPGKAPKLLIYDASTLQSGVPSRFSGSGSGTEFTLTISSLQPDDFATYYCQQYNSYSYTFGQGTKLEIK	kon	16200

Quick note, kon for Fab generated from 203S (Fab, V domains shown, also called 203S Fab) VH: QVQLVQSGAEVKKPGSSVKVSCKASGGTFSSYAISWVRQAPGQGLEWLGRILPALGLANYAQKYQDRVKITADKSTSTAYMELSRLGSEDTAVYYCARDRWVGAARRGQYFDYWGQGTQVTVSS VL: DIQMTQSPATLSASVGDRVTITCRASQSIGTWLAWYQQKPGKAPKLLIYDASSLESGVPPRFSGSGSETEFTLTISSLQPDDFATYYCHQYKSYSYTFGQGTKLEIK landed at 14400

Form: binder = Fab generated from 377S (Fab, V domains shown) VH: QVQLVQSGAEVKKPGSSVKVSCKASGGTFSNYAINWVRQAPGQGLEWMGRTIPFLGLTNYAENFQARVTITADKSTGTSYMQLSSLRSEDTAVYFCAKAATSGWSPFDNWGQGTLVTVSS VL: EIVLTQSPGTLSLSPGERATLSCRASQSISSSYFGWYQQKPGQAPRLLIYGASRRAAGIPDRFSCSGSGTDFTLTISRLEPEDFGVYYCQQYGSSPTFGQGTKVEIK ; kon = 17200
